# ASSAY SYSTEM: MCL-1 (UniProt:Q07820, residues 168–327, C286S) (human, UniProt Q07820 168-327, C286S)
# Sequence (Q07820 other isoform, or with tags, fused parts or gaps C286S | C286S): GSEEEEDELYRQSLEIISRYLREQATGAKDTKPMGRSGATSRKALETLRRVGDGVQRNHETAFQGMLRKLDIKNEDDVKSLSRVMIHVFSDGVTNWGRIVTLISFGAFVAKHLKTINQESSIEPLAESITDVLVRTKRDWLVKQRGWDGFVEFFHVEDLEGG
# MEASUREMENT DESCRIPTION: without detergent
No end group written: not given here. *: point of attachment. TAMRA = 5-carboxytetramethylrhodamine, CN(C)c1ccc2c(-c3ccc(C(=O)*)cc3C(=O)[O-])c3ccc(=[N+](C)C)cc-3oc2c1
PROPERTY MEASURED: pKd
Note on units: pKd is unitless, being -log10 of a concentration expressed in mol/L.

Q: State its pKd for this binder: {TAMRA}-RGEEEQWAREIGAQLRRAADDLNAQYERRRQEEQQ [PUMABH3, TAMRA-labelled 35-residue peptide (UniProt: Q9BXH1, residues 127–161, M144A)]
Ans: 9.76
